# TARGET_ENTITY: T1, human ROR1 on cells (HEK293T-hROR1, PANC-1, A549) (human, UniProt Q01973 30-937)
# T1 construct: whole, on cells; one molecule for the three cell lines; also called huROR1; cell surface ROR1
# EXPERIMENT_SUMMARY: flow cytometry, HEK293T-hROR1 cells
Let's look at some binders and their measured MAX(MFI).
Provide the reading as a plain figure in MFI.

Check out these entries, answers already filled in.
BINDER | VAL
PR303125 (antibody, human IgG1, V domains shown, HCAb (heavy chain-only, human IgG1 Fc), no light chain) VH: EVQLLESGGGLVQPGGSLRLSCAASGFTFSSHAMSWVRQAPGKGLEWVSAISGSGDSTHYAASVKGRFTISRDNSKNTLYLQMNSLRAEDTAVYYCETLLRFLESLGNDGFKIWGQGTMVTVSS | 1.5e+07
PR303145 (antibody, human IgG1, V domains shown, HCAb (heavy chain-only, human IgG1 Fc), no light chain) VH: QVQLVESGGGLVKPGGSLRISCAASGFTFSNYNMSWIRQAPGKGVEWVSHISGSGRTIYYAESVKGRFTISRDNAKNSLYLQMNSLRAEDTAMYYCARDLSSGWYEDFDYWGQGTLVTVSS | 1.35e+07
PR303199 (antibody, human IgG1, V domains shown, HCAb (heavy chain-only, human IgG1 Fc), no light chain) VH: EVQLVESGGGLVKPGGSLRLSCAASGFTFSDYYMSWIRQAPGKGLEWIAYISSSGSTIYYADSVKGRFTISRDNAKNSLYLQMNSLRAEDTAIYYCAREYYGSENYDHFDYWGQGTLVTVSS | 1.53e+07

PR303155 (antibody, human IgG1, V domains shown, HCAb (heavy chain-only, human IgG1 Fc), no light chain) VH: EVQLVESGGGLVKPGGSLRLSCAASGFTLSDYYMSWIRQAPGKGLEWISYISSNGSTIYYADSVKGRFTISRDNARNSLYLQMNSLRAEDTALYYCARDVSSGWYEDFDYWGQGTLVTVSS yielded MAX(MFI) of 1.49e+07

PR303201 (antibody, human IgG1, V domains shown, HCAb (heavy chain-only, human IgG1 Fc), no light chain) VH: EVQLLESGGGLVQPGGSLRLSCAASGFTFSGNAMSWVRQAPGKGLEWVSAISGSGDKTYYAASVKGRFTISRDNSNNTVYLQMNSLRAEDTAVYYCEKGAFRTTMDYWGQGTLVTVSS yielded MAX(MFI) of 1.55e+07
